# tgt: Replicase polyprotein 1ab (Severe acute respiratory syndrome coronavirus 2) (UniProt P0DTD1)
# measurementNotes: Inhibition of N-terminal hexa-histidine tagged recombinant SARS-CoV-2 nsp14 RNA cap N7-methyltransferase activity expressed in Escherichia coli C2566 assessed as residual enzyme activity using GpppAC4 synthetic RNA and [3H]-SAM as substrate at 50 uM incubated for 30 mins by filter binding assay based liquid scintillation counter analysis relative to control
Activity less than 60% is yes; Activity greater than or equal to 60% is no.

* Nc1ncnc2c1ncn2[C@@H]1O[C@H](CS(=O)(=O)CCNS(=O)(=O)c2ccccc2)[C@@H](O)[C@H]1O | yes
* CCN(CCNS(=O)(=O)c1ccccc1)C[C@H]1O[C@@H](n2cnc3c(N)ncnc32)[C@H](O)[C@@H]1O | no
* CCN(CCNS(=O)(=O)c1ccc([N+](=O)[O-])cc1)C[C@H]1O[C@@H](n2cnc3c(N)ncnc32)[C@H](O)[C@@H]1O | yes
* N#Cc1ccc(S(=O)(=O)NCCSC[C@H]2O[C@@H](n3cnc4c(N)ncnc43)[C@H](O)[C@@H]2O)cc1 | yes
* CCN(Cc1cn(C[C@H]2O[C@@H](n3cnc4c(N)ncnc43)[C@H](O)[C@@H]2O)nn1)S(=O)(=O)c1ccc(F)cc1 | no
* CCN(CCNS(=O)(=O)c1ccc(C(F)(F)F)cc1)C[C@H]1O[C@@H](n2cnc3c(N)ncnc32)[C@H](O)[C@@H]1O | no
* Cc1ccc(S(=O)(=O)NCCSC[C@H]2O[C@@H](n3cnc4c(N)ncnc43)[C@H](O)[C@@H]2O)cc1 | yes
* Nc1ncnc2c1ncn2[C@@H]1O[C@H](Cn2cc(CNS(=O)(=O)c3ccc(C(F)(F)F)cc3)nn2)[C@@H](O)[C@H]1O | no
* Nc1ncnc2c1ncn2[C@@H]1O[C@H](CSCCNS(=O)(=O)c2ccc(Cl)cc2[N+](=O)[O-])[C@@H](O)[C@H]1O | yes
* COc1ccc(S(=O)(=O)NCc2cn(C[C@H]3O[C@@H](n4cnc5c(N)ncnc54)[C@H](O)[C@@H]3O)nn2)cc1 | no
* Nc1ncnc2c1ncn2[C@@H]1O[C@H](Cn2cc(CNS(=O)(=O)c3ccc(Cl)cc3)nn2)[C@@H](O)[C@H]1O | no
* CCN(Cc1cn(C[C@H]2O[C@@H](n3cnc4c(N)ncnc43)[C@H](O)[C@@H]2O)nn1)S(=O)(=O)c1ccccc1 | no
* Nc1ncnc2c1ncn2[C@@H]1O[C@H](CS(=O)(=O)CCNS(=O)(=O)c2ccc([N+](=O)[O-])cc2)[C@@H](O)[C@H]1O | yes
* Nc1ncnc2c1ncn2[C@@H]1O[C@H](Cn2cc(CNS(=O)(=O)c3ccc(F)cc3)nn2)[C@@H](O)[C@H]1O | no
